target: PARP1 (Homo sapiens); experiment: PARP1 biochemical DELFIA assay (auto-PARylation); settings: Table 1A
Item-by-item account of IC50

// IC50 lookup, compound = O=C(CN1CCCC1c1cc(C(F)(F)F)c(=O)[nH]n1)N1CCN(c2nc3cc(Cl)ccc3o2)CC1 (single isomer, unassigned) [Compound 99b] , result: 1000 to 10000 nM

---

Reported values of IC50 for individual entries
target: PARP1 (Homo sapiens); assay: PARP1 biochemical DELFIA assay (auto-PARylation); settings: Table 1

compound: O=C(CCN1CCCC(c2cc(C(F)(F)F)c(=O)[nH]n2)C1)N1CCN(c2ccc(Cl)cn2)CC1 (single isomer, unassigned) [Compound 15b]
testResult: 100 to 1000 nM
//
compound: O=C(CN1CCCC1c1cc(C(F)(F)F)c(=O)[nH]n1)N1CCN(c2ncc(C(F)(F)F)cn2)CC1 (single isomer, unassigned) [Compound 24a]
testResult: 1000 to 10000 nM

GET /value?item= O=C(CN1CCCC(c2cc(C(F)(F)F)c(=O)[nH]n2)C1)N1CCN(c2ncc(C(F)(F)F)cn2)CC1 (single isomer, unassigned) [Compound 14b] &field=IC50 returns 100 to 1000 nM

---

target: PARP1 (Homo sapiens); test: PARP1 biochemical DELFIA assay (auto-PARylation); conditions: Table 1A
measureName: IC50

Worked cases, answers included:
compound: O=C(CN1CCCC1c1cc(C(F)(F)F)c(=O)[nH]n1)N1CCN(c2ccc(OC(F)(F)F)cn2)CC1 (single isomer, unassigned) [Compound 81b]
targetUnderTest: PARP1 (Homo sapiens)
IC50: 10 to 100 nM
//
compound: CC1(C)C[C@H](c2cc(C(F)(F)F)c(=O)[nH]n2)N(CC(=O)N2CCN(c3ncc(C(F)(F)F)cn3)CC2)C1 [Compound 94a]
targetUnderTest: PARP1 (Homo sapiens)
IC50: 10 to 100 nM
//
compound: O=C(CN1CC(F)(F)C[C@@H]1c1cc(C(F)(F)F)c(=O)[nH]n1)N1CCN(c2ncc(C(F)(F)F)cn2)CC1 [Compound 91a]
targetUnderTest: PARP1 (Homo sapiens)
IC50: 100 to 1000 nM
//
compound: Cn1c(N2CCN(C(=O)CN3CCCC3c3cc(C(F)(F)F)c(=O)[nH]n3)CC2)nc2ccccc21 (single isomer, unassigned) [Compound 97b]
targetUnderTest: PARP1 (Homo sapiens)
IC50: 1000 to 10000 nM

Okay, next one:
Data point: O=C(CN1CCCC1c1cc(C(F)(F)F)c(=O)[nH]n1)N1CCN(c2nc3ccc(Cl)cc3o2)CC1 (single isomer, unassigned) [Compound 85b] ; IC50 = 1000 to 10000 nM

---

biological target: PARP1 (Homo sapiens, UniProt P09874); assay: PARP1 biochemical DELFIA assay (auto-PARylation); conditions: Table 1A
Sequence (P09874 whole entry): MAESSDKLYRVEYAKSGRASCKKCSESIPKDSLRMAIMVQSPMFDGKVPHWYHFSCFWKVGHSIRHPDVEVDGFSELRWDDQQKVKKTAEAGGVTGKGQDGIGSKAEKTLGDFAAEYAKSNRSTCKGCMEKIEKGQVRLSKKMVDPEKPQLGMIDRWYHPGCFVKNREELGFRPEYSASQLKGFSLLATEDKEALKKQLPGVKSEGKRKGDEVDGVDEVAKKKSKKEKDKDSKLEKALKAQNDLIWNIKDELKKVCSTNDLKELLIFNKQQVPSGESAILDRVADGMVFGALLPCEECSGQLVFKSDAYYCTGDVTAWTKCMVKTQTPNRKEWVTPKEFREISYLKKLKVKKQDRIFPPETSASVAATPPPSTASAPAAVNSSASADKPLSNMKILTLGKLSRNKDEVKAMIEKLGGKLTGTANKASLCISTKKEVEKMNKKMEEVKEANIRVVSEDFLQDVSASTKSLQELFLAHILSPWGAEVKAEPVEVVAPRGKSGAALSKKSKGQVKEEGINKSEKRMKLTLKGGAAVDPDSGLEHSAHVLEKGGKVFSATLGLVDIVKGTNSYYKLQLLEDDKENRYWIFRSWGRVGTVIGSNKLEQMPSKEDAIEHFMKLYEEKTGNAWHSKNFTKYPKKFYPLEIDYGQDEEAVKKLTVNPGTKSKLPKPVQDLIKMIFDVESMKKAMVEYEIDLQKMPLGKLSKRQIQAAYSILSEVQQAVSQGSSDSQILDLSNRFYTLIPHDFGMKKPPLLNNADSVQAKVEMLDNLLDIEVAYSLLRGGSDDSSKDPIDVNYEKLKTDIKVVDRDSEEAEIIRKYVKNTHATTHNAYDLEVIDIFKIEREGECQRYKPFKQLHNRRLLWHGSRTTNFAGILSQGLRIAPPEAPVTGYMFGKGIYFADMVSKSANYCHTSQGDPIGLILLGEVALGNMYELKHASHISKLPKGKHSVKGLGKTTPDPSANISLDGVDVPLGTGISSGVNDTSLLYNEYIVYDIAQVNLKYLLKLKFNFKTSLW
List of IC50 values.

Consider the worked cases shown below.
compound: CNC(=O)c1ccc(N2CCN(C(=O)CN3CCCC3c3cc(C(F)(F)F)c(=O)[nH]n3)CC2)nc1 (single isomer, unassigned) [Compound 55b]
IC50: 100 to 1000 nM
//
compound: O=C(CN1CCCC1c1cc(C(F)(F)F)c(=O)[nH]n1)NC1CCN(c2ncc(C(F)(F)F)cn2)CC1 (single isomer, unassigned) [Compound 33b]
IC50: 100 to 1000 nM

Fill in: PARP1 (Homo sapiens, UniProt P09874) IC50 for O=C(CN1CCCC1c1cc(C(F)(F)F)c(=O)[nH]n1)N1CCN(c2nc3ccc(F)cn3n2)CC1 (single isomer, unassigned) [Compound 128a] = ≤ 10 nM

---

biological target: PARP1 (Homo sapiens); assay: PARP1 biochemical DELFIA assay (auto-PARylation); details: Table 1A
Below, each entry is listed with its recorded IC50.

So, COC1CC(c2cc(C(F)(F)F)c(=O)[nH]n2)N(CC(=O)N2CCN(c3ncc(C(F)(F)F)cn3)CC2)C1 (single isomer, unassigned) [Compound 138trans2] ? Its IC50 was > 10000 nM

Lab book: IC50 of N#Cc1cc(F)cnc1N1CCN(C(=O)CN2CCCC2c2cc(C(F)(F)F)c(=O)[nH]n2)CC1 (single isomer, unassigned) [Compound 146a] noted as 100 to 1000 nM

What the record says about CNC(=O)c1ccc(N2CCN(C(=O)CN3CCCC3c3cc(C(F)(F)F)c(=O)[nH]n3)CC2)nc1 (single isomer, unassigned) [Compound 55a] : IC50 is 1000 to 10000 nM

IC50 measured on O=C(CN1CCCC1c1cc(C(F)(F)F)c(=O)[nH]n1)N1CCN(c2ccc(F)cn2)CC1 (single isomer, unassigned) [Compound 46b] = 100 to 1000 nM

CNC(=O)c1ccc(N2CCN(C(=O)CN3CCC(c4cc(C(F)(F)F)c(=O)[nH]n4)CC3)CC2)cn1 yielded IC50 of 100 to 1000 nM

---

molecular target: PARP1 (Homo sapiens); experiment: PARP1 biochemical DELFIA assay (auto-PARylation); conditions: Table 1A
measureName: IC50

Recorded results for 5 compounds are shown here.
compound: O=C(CN1CCCC1c1cc(C(F)(F)F)c(=O)[nH]n1)N1CCN(c2ncc(Cl)cc2Cl)CC1 (single isomer, unassigned) [Compound 125b]
testResult: 1000 to 10000 nM
//
compound: CNC(=O)c1ccc(N2CCN(C(=O)CN3CCC(c4n[nH]c(=O)c5ccccc45)CC3)CC2)cn1
testResult: 10 to 100 nM
//
compound: O=C(CN1CCC(c2n[nH]c(=O)c3ccccc23)CC1)N1CCN(c2ncc(C(F)(F)F)cn2)CC1
testResult: 10 to 100 nM
//
compound: CC1(C)CC(c2cc(C(F)(F)F)c(=O)[nH]n2)CN(CCC(=O)N2CCN(c3ncc(C(F)(F)F)cn3)CC2)C1 (single isomer, unassigned) [Compound 87a]
testResult: 100 to 1000 nM
//
compound: O=C(CN1CCN(c2ncc(C(F)(F)F)cn2)CC1)N1CCCC1c1c[nH]c(=O)c(C(F)(F)F)c1 (single isomer, unassigned) [Compound 63a]
testResult: 10 to 100 nM

Simply: N#Cc1cc(C2CCCN2CC(=O)N2CC(Nc3ncc(C(F)(F)F)cn3)C2)n[nH]c1=O (single isomer, unassigned) [Compound 123a] , PARP1 (Homo sapiens), IC50 = 10 to 100 nM

The compound O=C(CN1CCCC1c1cc(C(F)(F)F)c(=O)[nH]n1)N1CCN(c2nc3cc(Cl)ccc3o2)CC1 (single isomer, unassigned) [Compound 99a] , when measured on PARP1 (Homo sapiens), yielded IC50 of ≤ 10 nM

---

The following molecules are listed with their measured pIC50 values.
target: PARP1 (Homo sapiens, UniProt P09874); test: PARP1 biochemical DELFIA assay (auto-PARylation); details: Table 1A
pIC50: −log10 of the molar value.

Form field pIC50 for item O=C(CN1CCCC1c1cc(C(F)(F)F)c(=O)[nH]n1)N1CCN(c2nc3ccccn3n2)CC1 (single isomer, unassigned) [Compound 117a] on PARP1 (Homo sapiens, UniProt P09874): ≥ 8.00

PARP1 (Homo sapiens, UniProt P09874) data for O=C(CN1CCCC1c1cc(C(F)(F)F)c(=O)[nH]n1)N1CCN(c2nc3cc(F)ccc3o2)CC1 (single isomer, unassigned) [Compound 93b] ; its pIC50: 5.00 to 6.00

Record CCc1[nH]c(=O)c(C(F)(F)F)cc1C1CCCN1CC(=O)N1CCN(c2ncc(C(F)(F)F)cn2)CC1 (single isomer, unassigned) [Compound 105b] / PARP1 (Homo sapiens, UniProt P09874), pIC50 recorded as 5.00 to 6.00

Tested on PARP1 (Homo sapiens, UniProt P09874): O=C(CN1CCCC1c1c[nH]c(=O)c(C(F)(F)F)c1)N1CCN(c2ncc(Cl)cn2)CC1 (single isomer, unassigned) [Compound 74b] . Observed pIC50: 5.00 to 6.00

---

biological target: PARP1 (Homo sapiens); assay: PARP1 biochemical DELFIA assay (auto-PARylation); conditions: Table 1A
pIC50: −log10 of the molar value.
measureName: pIC50

Record excerpt, results attached:
compound: O=C(CN1CCCC1c1cc(C(F)(F)F)c(=O)[nH]n1)N1CCN(c2nc3ccc(F)cn3n2)CC1 (single isomer, unassigned) [Compound 128b]
measureName: pIC50
testResult: 5.00 to 6.00
//
compound: N#Cc1cnc(N2CCN(C(=O)CN3CCCC3c3cc(C(F)(F)F)c(=O)[nH]n3)CC2)nc1 (single isomer, unassigned) [Compound 36a]
measureName: pIC50
testResult: 7.00 to 8.00
//
compound: CNC(=O)c1ccc(N2CCN(C(=O)CN3CCOCC3c3cc(C(F)(F)F)c(=O)[nH]n3)CC2)cn1 (single isomer, unassigned) [Compound 90b]
measureName: pIC50
testResult: 5.00 to 6.00
//
compound: Cc1[nH]c(=O)c(C(F)(F)F)cc1C1CCCN1CC(=O)N1CCN(c2ncc(C(F)(F)F)cn2)CC1 (single isomer, unassigned) [Compound 102a]
measureName: pIC50
testResult: 6.00 to 7.00
//
compound: O=C(CN1CCCC1c1cc(C(F)(F)F)c(=O)[nH]n1)N1CCN(c2ccc(Cl)cn2)CC1 (single isomer, unassigned) [Compound 41b]
measureName: pIC50
testResult: 5.00 to 6.00

Sure, the documented pIC50 for COC1CC(c2cc(C(F)(F)F)c(=O)[nH]n2)N(CC(=O)N2CCN(c3ncc(C(F)(F)F)cn3)CC2)C1 (single isomer, unassigned) [Compound 138cis1] is 7.00 to 8.00

For record N#Cc1cc(C2CCCN2CC(=O)N2CCN(c3nc4cc(F)ccc4o3)CC2)n[nH]c1=O (single isomer, unassigned) [Compound 149b] the listed pIC50 is < 5.00

The compound identified as CNC(=O)c1ccc(N2CCN(C(=O)CCN3CCC(c4cc(C(F)(F)F)c(=O)[nH]n4)CC3)CC2)cn1 registered its pIC50 at 7.00 to 8.00

O=C(CN1CCCC1c1cc(C(F)(F)F)c(=O)[nH]n1)N1CCN(c2ccc(C(F)(F)F)cn2)CC1 (single isomer, unassigned) [Compound 42a] yielded pIC50 of 5.00 to 6.00

Record summary for N#Cc1cc(C2CCCN2CC(=O)N2CCN(c3nc4cc(Cl)ccc4o3)CC2)n[nH]c1=O (single isomer, unassigned) [Compound 121a] : reported pIC50 = 6.00 to 7.00

Data origin: patent US20260193238A1
